system: DMS-114; assay: NCI tumour cell line growth inhibition, 48 h
Activity calls are given as the source filed them. Rule as the data show it: active = GI50 up to about 1.1 µM and inactive = higher.
Result category, one only: active, inactive

These recorded examples may help you get a feel for the data.
| compound | group |
| --- | --- |
| C/C(=N\NC(=N)N)C(CN1CCCCC1)C(c1ccccc1)c1c(O)c2ccccc2oc1=O (configuration not stated) | inactive |
| CC(C)(C)c1cc(C(OCCl)(C(F)(F)F)C(F)(F)F)c2c(c1)C(C(F)(F)F)(C(F)(F)F)OC21c2ccccc2C(=O)c2ccccc21 | inactive |
| COC(=O)c1c(CC(=O)OC(C)C)cc2n(c1=O)Cc1c-2nc2ccccc2c1OC | inactive |

// outcome(item) with item = CC1=C2C(=O)O[C@@H](c3ccoc3)[C@]2(C)CCC1 [FRAXINELLONE]
inactive

Check CC(C)(O)[C@@H]1CC[C@@]2(C)CCC[C@H](O)[C@H]2C1 too.
inactive

Check NC(=O)/C=C/c1c[nH]c2nccnc12 too.
inactive

Check Cc1cc(Cl)ccc1NC(=O)CCCC(=O)C1CCCC1=O (configuration not stated) too.
inactive

Check Cc1ccc(C2=NN(C)COC2C(F)(F)F)cc1 (configuration not stated) too.
inactive

Check O=C(Nc1cccc(O)c1)C(=O)C1C(=O)NC(=S)NC1=O too.
inactive

Check CCCCCCCCCCCC1CC(=O)NCCCN(C)CCCCN(C)CCCN1C (configuration not stated) [BUDMUNCHIAMINE A] too.
inactive

Check CCOC(=O)N1CCN(C=S)CC1 too.
inactive

Check CCOC(=O)/C(=C\c1ccc[nH]1)C(=O)c1ccccc1 too.
inactive

Check O=S(=O)(O)c1cc(O)c2c(O)c(/N=N/c3ccc(/C=C/c4ccc(/N=N/c5c(S(=O)(=O)O)cc6cc(S(=O)(=O)O)cc(O)c6c5O)cc4S(=O)(=O)O)c(S(=O)(=O)O)c3)c(S(=O)(=O)O)cc2c1 too.
inactive

###

system: SW-620; experiment: NCI tumour cell line growth inhibition, 48 h
Calls of active or inactive are those of the source. Cut-off read from the data, not from the text of the source: active = GI50 up to about 1.1 µM and inactive = higher.
Result category, one only: active, inactive

| compound | assay target | group |
| --- | --- | --- |
| Cn1c(NNc2ccccc2)cc(=O)[nH]c1=O | SW-620 | inactive |
| CC(C)Oc1c(O)c2c3c(oc(=O)n3C=CC2c2ccccc2F)c1OC(C)C (configuration not stated) | SW-620 | inactive |
| CC(=O)c1ccc(OCC(O)CO)cc1 (configuration not stated) | SW-620 | inactive |
| O=C(Cn1c(=O)oc2ccc(C(=O)c3ccc(F)cc3)cc21)c1ccc([N+](=O)[O-])cc1 | SW-620 | inactive |
| N/C(=N/O)c1cn(C2OC(CO)C(O)C2O)c2ncnc(NO)c12 (configuration not stated) | SW-620 | active |

// outcome(item) with item = C[C@@H](C(=O)O)c1ccc(-c2ccccc2)c(F)c1 [TARENFLURBIL]
inactive

Check C/C(=N\OCC(O)CNC(C)C)c1ccc2c(c1)NC(=O)CS2 (configuration not stated) too.
inactive

###

system: 786-0; assay: NCI tumour cell line growth inhibition, 48 h
Calls of active or inactive are those of the source. No stated cut-off is given here; in the data, active = GI50 up to about 1.1 µM and inactive = higher.
Assignment: determine reported GI50 for the given compounds.

Hey, can you go through the list below and give me GI50 for every item?
1. CC(C)Oc1c(O)c2c3c(oc(=O)n3C=CC2c2ccccc2F)c1OC(C)C (stereo unspecified)
2. CC1=C(C)CC2(C=C(C(C)(C)C)C(=O)C(C(C)(C)C)=C2)SC1
3. CCOC(=O)/C(C(N)=O)=C(O)/C(O)=C(\Br)C(=O)c1ccccc1
4. Cc1ccc2nc(-c3ccc(-c4nc5ccc(C)cc5o4)c(O)c3)oc2c1
5. C=CCSc1nc2ccccc2c(=O)n1Cc1ccco1
6. Cc1ccc(C2=NN(C)COC2C(F)(F)F)cc1 (stereo unspecified)

33.4 µM (inactive)
17.9 µM (inactive)
15.8 µM (inactive)
> 100 µM (inactive)
> 100 µM (inactive)
> 100 µM (inactive)

###

Assignment: determine reported GI50 for the given molecules.
test system: M19-MEL; assay: NCI tumour cell line growth inhibition, 48 h
Activity calls are given as the source filed them. No stated cut-off is given here; in the data, active = GI50 up to about 1.1 µM and inactive = higher.

| molecule | assay target | reading |
| --- | --- | --- |
| C/C(=C1/N=C(c2cc([N+](=O)[O-])ccc2Cl)N(c2cccc(C)c2)C1=O)c1cc2ccccc2oc1=O | M19-MEL | 66.2 µM (inactive) |
| [N-]=[N+]=N[C@H]1C[C@@H](CO)O[C@H]1n1cnc2c(N)ncnc21 | M19-MEL | > 100 µM (inactive) |
| CCOC(=O)CCC1(C(=O)OC)CCCC1=O (stereo not drawn) | M19-MEL | > 100 µM (inactive) |
| COC(=O)[C@]1(c2ccc(N(C)C)cc2OC)C[C@@H]2CCCN(CCc3c1[nH]c1ccccc31)C2 | M19-MEL | 16.4 µM (inactive) |
| CC1=NN(C(=O)c2ccccc2O)C(=O)/C1=C/c1ccc([N+](=O)[O-])cc1 | M19-MEL | 2.3 µM (inactive) |

Hey, can you go through the list below and give me GI50 for every item?
1. Cc1c2c(c(C)c3c1[nH]c1ccccc13)CN(C)CC2
2. O=C(Nc1cccc(O)c1)C(=O)C1C(=O)NC(=S)NC1=O
3. O=C1c2ccccc2C2(O)NC(=S)N(c3ccccc3)C12O (stereo not drawn)
4. Cc1cccc(NC(=O)Cc2nc3ccccc3s2)c1C
5. CCCCCCCCOCC(O)COC(=O)CCCCCCC (stereo not drawn)
6. c1ccc([P+](CCC[P+](c2ccccc2)(c2ccccc2)c2ccccc2)(c2ccccc2)c2ccccc2)cc1
7. C/C(=N\NC(=N)N)C(CN1CCCCC1)C(c1ccccc1)c1c(O)c2ccccc2oc1=O (stereo not drawn)

1: 16.6 µM (inactive); 2: > 100 µM (inactive); 3: > 100 µM (inactive); 4: > 100 µM (inactive); 5: 70.8 µM (inactive); 6: 19.9 µM (inactive); 7: > 100 µM (inactive)

###

tested on: PC-3; experiment: NCI tumour cell line growth inhibition, 48 h
Activity calls are given as the source filed them. No stated cut-off is given here; in the data, active = GI50 up to about 1.1 µM and inactive = higher.
Assignment: determine reported GI50 for the given molecules.

Example results:
| molecule | reading |
| --- | --- |
| COC(=O)C(=O)C(C(=O)C(=O)Nc1ccc(C)cc1)c1nc2ccc(C(=O)c3ccccc3)cc2nc1O (stereo not given) | 43.7 µM (inactive) |
| Clc1ccc(Cc2nc3cc(Cl)c(Cl)cc3n2CC2CCCN3CCCCC23)cc1 (stereo not given) | 9.04 µM (inactive) |
| N#Cc1c(N)[nH]c(=S)c(C#N)c1-c1cccc(Cl)c1 | 21.8 µM (inactive) |
| NS(=O)(=O)c1ccc(/N=N/c2cc3ccccc3c(C(=O)O)c2O)cc1 | > 48.3 µM (inactive) |
| COc1ccc(C2C3=C(N=C4SC(C(C)=O)=C(C)N42)c2ccccc2CC3)cc1 (stereo not given) | > 100 µM (inactive) |
| CCOC(=O)/C(C(N)=O)=C(O)/C(O)=C(\Br)C(=O)c1ccccc1 | 17.4 µM (inactive) |
| COc1ccc2c(c1)CCc1c-2[nH]c2ccc(OC)cc12 | > 100 µM (inactive) |
| O=C(NN1C(=O)/C(=C/c2ccc(Cl)cc2)N=C1c1ccccc1)c1c(Cl)c(Cl)c(Cl)c(Cl)c1-c1nc2ccccc2[nH]1 | 20.2 µM (inactive) |

Hey, can you go through the list below and give me GI50 for every item?
1. Nc1nc(Cl)cc(NCC2(CO)CCCCC2)n1
2. Cc1c(CNc2ccc(C(=O)NC(CC(=O)O)C(=O)O)cc2)ccc2nc(N)nc(N)c12 (stereo not given)
3. CC(C)/C(Cl)=N/OC(=O)Nc1ccc(OC(F)(F)F)cc1
4. CCOP(=O)(C/C=C/Cn1nc(Br)c(=O)[nH]c1=O)OCC

1: 83.4 µM (inactive); 2: 13.4 µM (inactive); 3: 16.1 µM (inactive); 4: > 100 µM (inactive)

###

tested on: SR; assay: NCI tumour cell line growth inhibition, 48 h
The source made the active and inactive calls. No stated cut-off is given here; in the data, active = GI50 up to about 1.1 µM and inactive = higher.
Result category, one only: active, inactive

These recorded examples may help you get a feel for the data.
| compound | group |
| --- | --- |
| COC(=O)C1CC2CC1C1C2SC(F)(F)C1(F)F (stereo not drawn) | inactive |
| O=S(=O)(c1ccccc1)C1(C2(S(=O)(=O)c3ccccc3)CCN=N2)CCN=N1 (stereo not drawn) | inactive |

Alright, here's another compound for you.
// outcome(item) with item = Cc1c(CNc2ccc(C(=O)NC(CC(=O)O)C(=O)O)cc2)ccc2nc(N)nc(N)c12 (stereo not drawn)
active

###

test system: A549; experiment: NCI tumour cell line growth inhibition, 48 h
Calls of active or inactive are those of the source. No stated cut-off is given here; in the data, active = GI50 up to about 1.1 µM and inactive = higher.
Result category, one only: active, inactive

These recorded examples may help you get a feel for the data.
| molecule | group |
| --- | --- |
| O=S(=O)(O)c1ccc2c(/N=N/c3ccc(Sc4ccc(/N=N/c5c(O)ccc6cc(S(=O)(=O)O)ccc56)cc4)cc3)c(O)ccc2c1 | inactive |
| Cc1ccc2nc(-c3ccc(-c4nc5ccc(C)cc5o4)c(O)c3)oc2c1 | inactive |
| COc1ccc(C23OCC(Cc4cc(OC)c(OC)cc42)C3CO)cc1OC (configuration not stated) | inactive |
| NS(=O)(=O)c1nnc(NC(=S)NC(=O)Nc2ccc(Cl)c(Cl)c2)s1 | inactive |
| Cc1ccc2occ/c(=N\Nc3ccccc3)c2c1 | inactive |
| COc1cc([C@@H]2c3cc4c(cc3[C@@H](Nc3ccc(NC(=O)c5cc([N+](=O)[O-])cn5C)cc3)[C@H]3COC(=O)[C@H]23)OCO4)cc(OC)c1O | active |
| Fc1ccc(Nc2nnc(-c3ccccn3)s2)cc1 | inactive |
| CC(=O)Nc1ccc(/C=C(\NC(=O)c2ccccc2)C(=O)NNS(=O)(=O)c2ccc(C)cc2)cc1 | inactive |

// outcome(item) with item = CCc1nc(N)c2nc(-c3ccc(C#N)cc3)oc2n1
inactive

Check O=c1oc2ccc3ccccc3c2cc1-c1nnc(-c2ccc([N+](=O)[O-])cc2)[nH]1 too.
inactive

Check O=C(/C=C/c1ccccc1O)/C=C/c1ccccc1O too.
inactive

Check O=C(OCCN=C1c2ccccc2CCc2ccccc21)c1ccccc1 too.
inactive

Check CN1CCCN(C)CCCN(C)CCCN(C)CCC1 too.
inactive

Check CC1=NN2C(=N)/C(=C/c3ccco3)C(=O)N=C2S1 too.
inactive

Check O=C(Cn1c(=O)oc2ccc(C(=O)c3ccc(F)cc3)cc21)c1ccc([N+](=O)[O-])cc1 too.
inactive

Check CC1(CCC2C=CCC2)CCCNC1=S (configuration not stated) too.
inactive

Check CN(C)/N=C1\CC(c2ccccc2)C(C#N)(C#N)C1(C#N)C#N (configuration not stated) too.
inactive
